# Test system: SK-MEL-5 melanoma
# ASSAY_DETAILS: NCI-60 one-dose screen, 48 h
# TEST_PARAMETERS: 10 µM unless noted
Compounds without any hit were thinned out: in the full panel of roughly 83,000, 20% have a hit. Activity calls are given as the source filed them. How the source made its calls: active means growth percent below 10; inactive means the rest.
Please answer using one outcome listed in YES (active), NO (inactive)

Request: Recorded call for COc1ccc(-n2cnc3cc(C(=O)N4CCCCC4)ccc32)cc1 ?
Result: NO

Request: Can you look up the reported call for Nc1nc(Nc2ccccc2SSc2ccccc2Nc2nc(N)nc(C(Cl)(Cl)Cl)n2)nc(C(Cl)(Cl)Cl)n1 for me?
Result: NO

Request: Tell me the assay call for CCCCc1n(Cc2ccc3ccccc3c2)cc[n+]1Cc1ccc2ccccc2c1 please.
Result: YES

Request: I would be grateful if you could indicate the recorded call for CN(C)CCCN=c1cc2c(=O)n(CCCN(C)C)c(=O)c3c(NCCCN(C)C)cc4c(O)n(CCCN(C)C)c(=O)c1c4c3-2 .
Result: YES

Request: Per the assay record, what outcome was assigned to CC(=O)N1N=C(c2ccc3c(c2)OCO3)CC1c1c(C)nn(-c2ccccc2)c1N(C)Cc1ccccc1 (stereo not drawn) ?
Result: NO

Request: // return assay outcome for CCC(C)C1NC(=O)C(CCNCS(=O)(=O)O)NC(=O)C(NC(=O)C(CCNCS(=O)(=O)O)NC(=O)C(NC(=O)C(CCNCS(=O)(=O)O)NC(=O)CCCCC(C)C)C(C)O)CCNC(=O)C(C(C)O)NC(=O)C(CCNCS(=O)(=O)O)NC(=O)C(CCNCS(=O)(=O)O)NC(=O)C(C(C)CC)NC1=O (stereo not drawn)
Result: YES

Request: What was the test verdict on CCCCCc1c(C)[nH]c(/C=C2\N=C(c3ccc[nH]3)C=C2OCc2ccccc2)c1C ?
Result: YES

Request: Answer briefly: the call reported for CCCCCCCCCCCCCCCCCC1=NC(C)(CO)CO1 (stereo not drawn) in this assay.
Result: NO

Request: Call for entry O=C(CC(C(=O)c1ccccc1)N1CCN(Cc2ccccc2)CC1)c1ccccc1 (stereo not drawn) :
Result: NO

Request: Look up the recorded call for CC1c2ccccc2-c2ccccc2N1C (stereo not drawn) in this test.
Result: NO

Request: Entry COc1cccc(C=Nc2cc(C(C)C)c(O)cc2C)c1O : call = ?
Result: NO

Request: Recorded test call requested for O=C(/C=C(\Nc1ccccc1)c1ccccc1)c1cn(-c2ccc([N+](=O)[O-])cc2)nn1
Result: NO

Request: Please let me know the test result on file for CCOC(=O)C(Br)=P(c1ccccc1)(c1ccccc1)c1ccccc1 .
Result: NO

----------
# Tested on: NCI-H23 lung
# ASSAY_DETAILS: NCI-60 one-dose screen, 48 h
# TEST_PARAMETERS: 10 µM unless noted
This is part of a sample that, as a whole, favours compounds with a hit. Of some 83,000 tested, about 20% had one in any assay. The source made the active and inactive calls. The calls were made as follows: active = growth percent below 10; inactive = the rest.
Outcomes you can answer with include only these: class 1 = active, class 0 = inactive

Request: Dear all, I need the recorded test outcome for O=C(CC(C(=O)c1ccccc1)N1CCN(Cc2ccccc2)CC1)c1ccccc1 (centres undefined) , thank you.
Result: class 0

Request: Assay outcome for Cc1sc2nc(NCc3ccccc3)[nH]c(=O)c2c1C : what was it?
Result: class 0

Request: What did the test return for c1ccc(Nc2ccc(Nc3nc(-c4ccccc4)nc4ccccc34)cc2)cc1 ?
Result: class 0

Request: For COc1ccc(/C=C2/SC(=Nc3c(C)nn(-c4ccccc4)c3N)NC2=O)cc1 , what call appears in the results of this test?
Result: class 0

Request: For this compound, state the assay outcome: Cc1sc2nc(N3CCCCC3)[nH]c(=O)c2c1C
Result: class 0

Request: Hey, what did the test say about O=C(O)c1ccc2cccnc2c1O ?
Result: class 1

Request: Query: recorded result category for COc1cccc(/C=N/Nc2nc3ccccc3s2)c1OC in this test
Result: class 0

Request: Please state the recorded outcome for this compound: CCOC(=O)c1cnc2c(C)cc(C)cc2c1NCCCN(C)C
Result: class 0

Request: Query: recorded result category for O=C(COc1ccc(/C=C2\Oc3ccc4ccccc4c3C2=O)cc1)c1ccc([N+](=O)[O-])cc1 in this test
Result: class 0

Request: How did this test come out for N#Cc1ccccc1C#Cc1ccccc1C#Cc1ccc(OCCCCCCOc2ccc(C#Cc3ccccc3C#Cc3ccccc3C#N)cc2)cc1 ?
Result: class 0

Request: Recorded call for O=[N+]([O-])c1ccc(NS(=O)(=O)c2ccc(Cl)c(Cl)c2)cc1 ?
Result: class 0

Request: Fill in: this test's call for COc1cccc2c1C(=O)c1c(O)c3c(c(O)c1C2=O)C[C@@](O)(C(C)=O)C[C@@H]3O[C@H]1C[C@H](N)[C@H](O)[C@H](C)O1 is ___
Result: class 1

Request: Test call for this compound, please: COc1ccc(C(=O)COc2cccc(/C=C3\CSc4ccc(Cl)cc4C3=O)c2)cc1
Result: class 0

Request: For CC(C)Sc1nc(-c2ccc(Br)cc2)c(C#N)c(N2CCCCC2)n1 , which call appears in the assay record?
Result: class 0

Request: I'd appreciate the recorded outcome for COc1ccc2c(c1)CC[C@@H]1[C@@H]2CC[C@]2(C)[C@@H](O)C(=O)C[C@@H]12 from this test.
Result: class 0

Request: So what was the verdict on CCOC(=O)CCC(=O)O[C@H]1[C@H](O[C@@H]2[C@@H](C)[C@H](O[C@H]3C[C@@](C)(OC)[C@@H](O)[C@H](C)O3)[C@@H](C)C(=O)O[C@H](CC)[C@@](C)(O)[C@H](O)[C@@H](C)C(=O)[C@H](C)C[C@@]2(C)O)O[C@H](C)C[C@@H]1N(C)C in this test?
Result: class 0

Request: What did this assay record as the result for COc1ccc2c(c1)CC/C(=C\c1ccc(OCC(=O)Nc3nc4ccccc4s3)cc1)C2=O ?
Result: class 0

Request: Lab log entry: COc1cccc(/C=C2\Cc3ccccc3C2=O)c1 — outcome as called in the assay?
Result: class 0

Request: Tell me the recorded outcome of this test for O=C1Nc2ccc(Cl)cc2[C@@](C#CC2CC2)(C(F)(F)F)O1 .
Result: class 0

Request: Check the results log: what was the call for Cc1cc(Cl)ccc1Nc1nc(C(F)(F)F)ccc1C(=O)N/N=C/c1ccc(Cl)cc1 ?
Result: class 1

Request: Lab log entry: OCc1n(Cc2ccc3ccccc3c2)cc[n+]1Cc1ccc2ccccc2c1 — outcome as called in the assay?
Result: class 0

Request: Please state the recorded outcome for this compound: COc1cc(C(=O)c2cc3c(cc2C)OCO3)cc(OC)c1OC
Result: class 0

Request: What classification did Cc1cc(=O)oc2cc(OCCn3c(C)nn(-c4ccc(Cl)cc4)c3=O)ccc12 end up with in this test?
Result: class 0

Request: Give the logged outcome of this assay for the following compound: O=C1NC(=O)/C(=C/c2ccc(Cl)cc2Cl)N1
Result: class 0

Request: Lab log entry: CC(NNC(=S)N1CCCCCC1)c1ccc2ccccc2n1 (centres undefined) — outcome as called in the assay?
Result: class 0

Request: Please let me know the test result on file for CC(C)=CCCC(C)c1ccc(C)c2c1OCN(CC1CCNCC1)C2 (centres undefined) .
Result: class 0

Request: Check the results log: what was the call for C[N+]1(C)C2CC[C@@H]1CC(OC(=O)C(O)c1ccccc1)C2 (some centres undefined) ?
Result: class 0

Request: # fetch the recorded call for N#CC1c2ccccc2C=CN1C(=O)N(c1ccccc1)c1ccccc1 (centres undefined) here
Result: class 0

Request: Fill in: this test's call for C=C1CC[C@@H]2[C@](C)(COC(C)=O)[C@H](OC(C)=O)CC[C@@]2(C)[C@@H]1CC(NCc1ccccc1)C1=CCOC1=O (some centres undefined) is ___
Result: class 0

Request: For O=C1c2cc3c(cc2-c2c1c1ccc(Cl)cc1c(=O)n2CCCNCCO)OCO3 , what call appears in the results of this test?
Result: class 1

Request: Record lookup: outcome of this test for COc1cc2c(cc1OC)C(CC1(O)CCCCC1)N(S(=O)(=O)c1ccc(C)cc1)CC2 (centres undefined) ?
Result: class 0

Request: What did this assay record as the result for O=C1Nc2ccc(C(=O)O)c(O)c2C1=O ?
Result: class 0

Request: # fetch the recorded call for COc1cc(/C=C/C(=O)CC(=O)/C=C/c2ccc(OC(=O)CCNC34CC5CC(CC(C5)C3)C4)c(OC)c2)ccc1OC(=O)CCNC12CC3CC(CC(C3)C1)C2 here
Result: class 0

Request: Tell me the assay call for O=c1c2c(=NCCCN3CCCC3)cc3c(=O)n(CCCN4CCCC4)c(=O)c4c(NCCCN5CCCC5)cc(c(O)n1CCCN1CCCC1)c2c4-3 please.
Result: class 1

Request: Recorded call for Cc1ccc(-c2csc(N)n2)cc1 ?
Result: class 0

Request: Write down the call the test reported for this compound. Item: CCN(CC)c1ccc(N=C2C=CC(=O)C=C2NC(C)=O)cc1
Result: class 0

Request: For Oc1c(N=Nc2nn[nH]n2)ccc2ccccc12 , which call appears in the assay record?
Result: class 0

Request: Outcome logged for CCSc1nc(-c2ccco2)n2nc(-c3ccco3)cc2n1 in this assay:
Result: class 0

Request: Which result was noted for this compound in the test: COc1cc(/C(Cl)=C/C=C/C(=O)c2c(C)[n+]([O-])c3ccc(Cl)cc3[n+]2[O-])cc(OC)c1OC
Result: class 0
